# assay.method.text: inhibitors of mutant huntingtin aggregation, primary screen, imaging, exon1htt(103Q)mCFP cells, high-content imaging (AID 483);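 note: compound exposure lasted 3 days before fixation; percent of the per-plate median nuclei count of sample wells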
# stated.conditions: exon1htt(103Q)mCFP cell line, aggregate imaging, at 2 µM; measured here: cell count, toxicity
parameter.measured: nuclei count (%)
Answers are plain numbers, in %.

[Q] Query (compound): CCc1nnc(SCC(=O)NC2CCCCC2)nc1CC ; field requested: nuclei count
[A] 105

[Q] Let us now turn to CCOC(=O)N1CCC(N2C(=O)c3ccc(C(=O)NCc4ccco4)cc3C2=O)CC1
[A] 96.3

Lab note: next compound to report on.
[Q] Query (compound): CS(=O)(=O)N1CCN(c2ccccc2NC(=O)c2ccc(-c3ccc(Cl)cc3Cl)o2)CC1 ; field requested: nuclei count
[A] 72.7
